Consider the following compounds; for each one, report its GI50.
system: RXF 393 renal; experiment: NCI tumour cell line growth inhibition, 48 h

I looked up COc1ccc(C2CC(c3cccc(Nc4ccncc4)c3)=NN2c2ccc(Cl)cc2)cc1 (centres undefined) and its GI50 for RXF 393 renal was 1.59 µM

Per the reported RXF 393 renal data, `COc1cc(-c2nc3sccn3c2-c2ccnc(NCCNS(=O)(=O)c3ccc(Cl)cc3)n2)ccc1F` has GI50 of 1.64 µM

So the reported GI50 for `COC(=O)C1=C(C)NC(C)=C(C(=O)OC)C1/C=C(\Cl)c1ccc(Cl)c(Cl)c1` , on RXF 393 renal, turned out to be 13.4 µM

Recorded GI50 for `CC[O-].CC[O-].O=C([CH-]C(=O)c1cccnc1)c1ccccc1.O=C([CH-]C(=O)c1cccnc1)c1ccccc1.[Ti+4]` on RXF 393 renal was 19.7 µM

// GI50 (RXF 393 renal) for `CCOC(=O)c1sc2ncn(Cc3cccc(Br)c3)c(=O)c2c1C` = 29 µM

Measured on RXF 393 renal, `CCN1/C(=C/C=C/c2n(-c3ccccc3)c3ccc(-c4nc5ccccc5s4)cc3[n+]2CC)N(c2ccccc2)c2ccc(-c3nc4ccccc4s3)cc21` has a documented GI50 of 0.563 µM

Record `CCCc1cc(O)c2c3c(c(=O)oc2c1)CN(C)CC3` / RXF 393 renal, GI50 recorded as 23.1 µM

# lookup: `[Cl][Sn]([Cl])([c]1ccccc1)[c]1ccccc1` on RXF 393 renal, GI50 = 2.79 µM

Assay RXF 393 renal, sample CN(CCCCCl)P(=O)(OCc1ccc([N+](=O)[O-])o1)OCC1OC(n2ccc(N)nc2=O)C(F)(F)C1O (centres undefined) , GI50 read: > 100 µM

Where these numbers come from: PubChem BioAssay (NCI)
